The values you see were collected from patent US20250059171A1.

# target_entity: MERS-CoV 3CLpro (Middle East respiratory syndrome-related coronavirus)
# Sequence (K9N7C7 3248-3553): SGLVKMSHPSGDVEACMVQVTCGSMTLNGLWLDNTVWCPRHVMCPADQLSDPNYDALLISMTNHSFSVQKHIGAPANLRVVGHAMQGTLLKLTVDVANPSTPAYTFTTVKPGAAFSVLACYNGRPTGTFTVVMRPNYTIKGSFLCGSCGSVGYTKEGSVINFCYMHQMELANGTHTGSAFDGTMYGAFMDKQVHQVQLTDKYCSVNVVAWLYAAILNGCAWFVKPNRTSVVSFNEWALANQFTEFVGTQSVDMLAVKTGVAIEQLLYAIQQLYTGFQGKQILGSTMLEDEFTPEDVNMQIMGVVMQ
pIC50: −log10 of the molar value.
# if value of pIC50 reaches 7, tag label 1; if it stays below, tag label 0

{"molecule": "CC(C)(C)[C@H](NC(=O)C(F)F)C(=O)N1C[C@@H]2CCC[C@@H]2[C@H]1C(=O)NN(C[C@@H]1CCNC1=O)C(=O)[C@H](F)Cl", "assigned_label": "label 0"}
{"molecule": "CC[C@H](C)[C@H](NC(=O)C(C)F)C(=O)N1C[C@@H]2CCC[C@@H]2[C@H]1C(=O)NN(C[C@@H]1CCNC1=O)C(=O)[C@H](F)Cl (mixture of isomers)", "assigned_label": "label 1"}
{"molecule": "CC[C@H](C)[C@H](NC(=O)C(C)C)C(=O)N1C[C@H]2[C@@H]([C@H]1C(=O)NN(C[C@@H]1CCNC1=O)C(=O)[C@H](F)Cl)C2(C)C", "assigned_label": "label 1"}
{"molecule": "CC(C)(C)[C@H](NC(=O)C(F)(F)F)C(=O)N1CCC(C)(C)[C@H]1C(=O)NN(C[C@@H]1CCNC1=O)C(=O)[C@H](F)Cl [Example 155a]", "assigned_label": "label 0"}
